Biological target: T1, sTREM2 in cynomolgus CSF (cynomolgus monkey, UniProt A0A2K5UY34 49-187)
T1 construct: domain: soluble TREM2 (sTREM2); also called soluble TREM2 in healthy cynomolgus monkey CSF
T1 sequence: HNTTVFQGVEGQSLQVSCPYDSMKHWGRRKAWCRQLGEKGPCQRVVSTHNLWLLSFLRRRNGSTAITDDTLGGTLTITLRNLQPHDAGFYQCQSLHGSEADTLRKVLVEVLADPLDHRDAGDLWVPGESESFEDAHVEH
Experiment: MSD assay, sTREM2 from CSF captured by biotinylated goat anti-human TREM2, sulfo-tagged test antibody titrated
assayEndpoint: EC50 (nM)
Hi! Could you send only the number? It should be in nM, unit omitted.

Lookup: Entry under review: Reference antibody #3 (antibody, V domains shown, also called AL2p-58 (WO 2019/028292)) VH: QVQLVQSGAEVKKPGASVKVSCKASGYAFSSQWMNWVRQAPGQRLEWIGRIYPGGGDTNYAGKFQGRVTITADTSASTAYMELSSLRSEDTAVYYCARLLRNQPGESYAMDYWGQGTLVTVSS VL: DVVMTQSPDSLAVSLGERATINCRSSQSLVHSNRYTYLHWYQQKPGQSPKLLIYKVSNRFSGVPDRFSGSGSGTDFTLKISRVEAEDVGVYYCSQSTRVPYTFGQGTKLEIK . Reported EC50?
Found: 33.7

Lookup: Entry under review: CL0020123-5 (antibody, V domains shown, Humanized variant of CL0020123) VH: QVQLVQSGAEVKKPGASVKVSCKASGFSIEDFYIHWVRQAPGQGLEWMGWIDPEQGESKYAPKFQGRATITADTSTSTAYMELSSLRSEDTAVYYCHADHGNYGSTMDYWGQGTLVTVSS VL: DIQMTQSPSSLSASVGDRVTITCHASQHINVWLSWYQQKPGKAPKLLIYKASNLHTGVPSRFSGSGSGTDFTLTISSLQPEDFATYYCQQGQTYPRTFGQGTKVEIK . Reported EC50?
Found: 49.4

Lookup: Entry under review: Reference antibody #2 (antibody, V domains shown, also called 6E7 (WO 2018/195506)) VH: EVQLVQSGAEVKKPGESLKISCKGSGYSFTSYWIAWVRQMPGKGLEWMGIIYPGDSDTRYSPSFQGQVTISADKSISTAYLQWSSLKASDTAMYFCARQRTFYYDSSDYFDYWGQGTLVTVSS VL: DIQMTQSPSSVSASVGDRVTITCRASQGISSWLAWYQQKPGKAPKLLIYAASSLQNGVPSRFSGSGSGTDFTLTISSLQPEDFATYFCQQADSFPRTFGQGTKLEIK . Reported EC50?
Found: 6.5

Lookup: Entry under review: CL0020188-4 (antibody, V domains shown, Humanized variant of CL0020188) VH: EVQLVESGGGLVQPGGSLRLSCAGSGFTFTDFYMSWVRQAPGKGPEWLSVIRNKANGYTAGYNPSVKGRFTISRDNSKNTLYLQMNSLRAEDTAVYYCARLTYGFDYWGQGTLVTVSS VL: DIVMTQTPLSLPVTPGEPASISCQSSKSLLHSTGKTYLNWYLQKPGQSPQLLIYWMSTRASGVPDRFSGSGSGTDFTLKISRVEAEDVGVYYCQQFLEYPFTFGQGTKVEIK . Reported EC50?
Found: 0.28
